experiment: collision cross section in nitrogen (drift tube, single-field); higher = larger gas-phase ion size; details: ion type: [M-H]; ion source: ESI; ion mode: Negative;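 note: chemical standards at 10 µM analysed by drift tube IMS-QTOF MS in about 3.95 torr nitrogen, mean of duplicate injections differing ≤1%, mass error below 10 ppm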
Structures can show the parent of a compound that is named as a salt.
endpoint-label: collision cross section in nitrogen (Å²)

[[record]]
compound = "Cc1cc(C)c(S(=O)(=O)O)cc1N=Nc1cc(S(=O)(=O)O)c2ccccc2c1O"
endpoint_label = "collision cross section in nitrogen"
experimental_value = 208.6

[[record]]
compound = "CCCCCCCCO[C@@H]1O[C@H](CO)[C@@H](O)[C@H](O)[C@H]1O [Octyl beta-D-glucopyranoside]"
endpoint_label = "collision cross section in nitrogen"
experimental_value = 180.1

[[record]]
compound = "Cc1c(O)cccc1O"
endpoint_label = "collision cross section in nitrogen"
experimental_value = 123.6

[[record]]
compound = "N[C@@H](CCC(=O)O)C(=O)O [L-Glutamic acid hydrochloride]"
endpoint_label = "collision cross section in nitrogen"
experimental_value = 125.9

[[record]]
compound = "Cc1ccc(C)c(S(=O)(=O)O)c1"
endpoint_label = "collision cross section in nitrogen"
experimental_value = 138.2

[[record]]
compound = "CC1(C)O[C@@H]2C[C@H]3[C@@H]4C[C@H](F)C5=CC(=O)CC[C@]5(C)[C@H]4[C@@H](O)C[C@]3(C)[C@]2(C(=O)CO)O1 [Flurandrenolide]"
endpoint_label = "collision cross section in nitrogen"
experimental_value = 201.8

[[record]]
compound = "O=c1c(-c2ccc(O)cc2)coc2cc(O)cc(O)c12"
endpoint_label = "collision cross section in nitrogen"
experimental_value = 161.6

[[record]]
compound = "CC(C)c1ccc(O)cc1"
endpoint_label = "collision cross section in nitrogen"
experimental_value = 134.1


* * *

assay: collision cross section in nitrogen (drift tube, single-field); higher = larger gas-phase ion size; details: ion type: [M+Na]; ion source: ESI; ion mode: Positive
endpoint-label: collision cross section in nitrogen (Å²)

[[record]]
compound = "CCOC(=O)C1=NOC(c2ccccc2)(c2ccccc2)C1 [Ethyl 5,5-diphenyl-2-isoxazoline-3-carboxylate]"
endpoint_label = "collision cross section in nitrogen"
unit_abbreviation = "Å²"
experimental_value = 187.8


[A] NC(=O)OCC(COC(N)=O)c1ccccc1 [Felbamate]
[B] CCCCCCCC(=O)OCC(COC(=O)CCCCCCC)OC(=O)CCCCCCC
Q: Between A and B , which one shows the smaller collision cross section in nitrogen number? Reply briefly: the label of your chosen item.
Ans: A
(A: 159.6 Å², B: 231.4 Å²)

[P] CCCCCCOC(=O)CCCCCCCC(=O)OCCCCCC [Dihexyl nonanedioate]
[Q] CCCOCCOCCOCCO [2-[2-(2-Propoxyethoxy)ethoxy]ethanol]
Q: Hi, I'm comparing P with Q and wondering which one has the bigger number for collision cross section in nitrogen. Any idea? # respond with the chosen item's label
Ans: P

* * *

test: collision cross section in nitrogen (drift tube, single-field); higher = larger gas-phase ion size; conditions: ion source: APCI; ion mode: Positive; ion type: [M]+ (permanent cation)
endpoint-label: collision cross section in nitrogen (Å²)

[[record]]
molecule = "CCCCCCCCCCCCCCCC[N+](C)(C)Cc1ccccc1 [Benzalkonium chloride C16 (BAC C16)]"
experimental_value = 208.9

[[record]]
molecule = "CCCCCCCCCCCCCCCCCC[N+](C)(C)Cc1ccccc1 [Benzalkonium chloride C18 (BAC C18)]"
experimental_value = 215.1

[[record]]
molecule = "CCCC[N+](CCCC)(CCCC)CCCC [Tetrabutylammonium bromide]"
experimental_value = 167.2

[[record]]
molecule = "CCCCCCCCCCCC[N+](C)(C)Cc1ccccc1 [Benzalkonium chloride C12 (BAC C12)]"
experimental_value = 193


* * *

assay: collision cross section in nitrogen (drift tube, single-field); higher = larger gas-phase ion size; conditions: ion type: [M+H]; ion source: ESI; ion mode: Positive
endpoint-label: collision cross section in nitrogen (Å²)

[[record]]
compound = "CCc1nn(C2CCCCC2)c2cc([C@]3(C#N)CC[C@@H](C(=O)O)CC3)ccc12"
experimental_value = 205.4

[[record]]
compound = "CC1=NN(c2ccc(C)cc2)C(=O)C1"
experimental_value = 142.9

[[record]]
compound = "c1ccc(CNc2ncnc3c2ncn3C2CCCCO2)cc1 (centres undefined) [N-Benzyl-9-(tetrahydro-2H-pyran-2-yl)adenine]"
experimental_value = 176.5

[[record]]
compound = "Cc1nn(-c2cc(NS(C)(=O)=O)c(Cl)cc2Cl)c(=O)n1C(F)F"
experimental_value = 178.2

[[record]]
compound = "COc1ccnc(CS(=O)c2nc3cc(OC(F)F)ccc3[nH]2)c1OC (centres undefined) [Pantoprazole sodium]"
experimental_value = 185.2

[[record]]
compound = "CCN(CCO)c1cccc(C)c1"
experimental_value = 140.6

[[record]]
compound = "COc1ccc(N)cc1 [p-Anisidinium chloride]"
experimental_value = 133.2

[[record]]
compound = "CC(C)(c1ccccc1)c1cc(-n2nc3ccccc3n2)c(O)c(C(C)(C)c2ccccc2)c1"
experimental_value = 218

[[record]]
compound = "O=C1CC2(CCCC2)CC(=O)N1CCCCN1CCN(c2ncccn2)CC1"
experimental_value = 199.2


* * *

assay: collision cross section in nitrogen (drift tube, single-field); higher = larger gas-phase ion size; details: ion type: [M+H]; ion source: ESI; ion mode: Positive
Where a name gives a salt, the structure may show the parent alone.
endpoint-label: collision cross section in nitrogen (Å²)

[[record]]
molecule = "CCN(CC)C(=O)c1cc(S(=O)(=O)Cc2ccccc2)c(N2CCC(c3ccccc3)CC2)cc1N(CC)CCN(C)C [HMR1171 trifluoroacetate (1:1)]"
experimental_value = 249.1

[[record]]
molecule = "Nc1nc(N)nc(-c2ccccc2)n1 [6-Phenyl-1,3,5-triazine-2,4-diamine]"
experimental_value = 140.6

[[record]]
molecule = "CNC(=O)Oc1ccc(N(C)C)c(C)c1 [Aminocarb]"
experimental_value = 152.2

[[record]]
molecule = "Cc1ccc2ncccc2c1 [6-Methylquinoline]"
experimental_value = 125.8

[[record]]
molecule = "COc1ccc2c(c1)c(CC(=O)O)c(C)n2C(=O)c1ccc(Cl)cc1 [Indomethacin]"
experimental_value = 181.2

[[record]]
molecule = "CN1CCC[C@H]1c1cccnc1 [Nicotine sulfate (2:1)]"
experimental_value = 137.7

[[record]]
molecule = "CCCCCCCC/C=C\\CCCCCCCC(=O)N(C)CC(=O)O [Oleyl sarcosine]"
experimental_value = 200.6

[[record]]
molecule = "CSC1=N[C@@](C)(c2ccccc2)C(=O)N1Nc1ccccc1 [Fenamidone]"
experimental_value = 172.7


[I] CCCCOC(=O)C(C)Oc1ccc(Oc2ccc(C(F)(F)F)cn2)cc1 (stereo not given) [Fluazifop-butyl]
[II] Clc1ccc2[nH]nnc2c1 [5-Chlorobenzotriazole]
Q: Could you tell me which of these two has the smaller collision cross section in nitrogen figure? First: I Second: II # respond with the chosen item's label
Ans: II

* * *

assay: collision cross section in nitrogen (drift tube, single-field); higher = larger gas-phase ion size; settings: ion type: [M+Na]; ion source: ESI; ion mode: Positive
Counter-ions that a name gives are not always drawn.
endpoint-label: collision cross section in nitrogen (Å²)

Some entries whose results are on file:
[[record]]
compound = "CC1(C)[C@H](/C=C2\\CCSC2=O)[C@@H]1C(=O)OCc1coc(Cc2ccccc2)c1"
unit_abbreviation = "Å²"
experimental_value = 192.5

[[record]]
compound = "O=c1oc2ccccc2c(O)c1C(CC(O)c1ccc(-c2ccc(Br)cc2)cc1)c1ccccc1 (stereo unspecified)"
unit_abbreviation = "Å²"
experimental_value = 239.5

[[record]]
compound = "COP(N)(=S)Oc1ccccc1C(=O)OC(C)C (stereo unspecified)"
unit_abbreviation = "Å²"
experimental_value = 168.6

[[record]]
compound = "CCNC(=O)[C@@H](C)OC(=O)Nc1ccccc1 [Carbetamide]"
unit_abbreviation = "Å²"
experimental_value = 167.4

[[record]]
compound = "C=CCc1ccc(OC(=O)Cc2ccccc2)c(OC)c1 [Eugenyl phenylacetate]"
unit_abbreviation = "Å²"
experimental_value = 175.7

[[record]]
compound = "CC(C)c1ccc(C(=O)N=C(N)N)cc1S(C)(=O)=O [Cariporide mesylate]"
unit_abbreviation = "Å²"
experimental_value = 178.2

[[record]]
compound = "CCCCOC(=O)CC(CC(=O)OCCCC)(OC(C)=O)C(=O)OCCCC [Acetyl tributyl citrate]"
unit_abbreviation = "Å²"
experimental_value = 207

[[record]]
compound = "COC(=O)c1ccccc1CS(=O)(=O)NC(=O)Nc1nc(OC)cc(OC)n1"
unit_abbreviation = "Å²"
experimental_value = 197.8

[[record]]
compound = "CC1Cc2ccccc2N1NC(=O)c1ccc(Cl)c(S(N)(=O)=O)c1 (stereo unspecified) [Indapamide]"
unit_abbreviation = "Å²"
experimental_value = 195.9

[[record]]
compound = "CCCCCCCCCCOC(=O)c1ccccc1C(=O)OCCCCCCCC [Octyl decyl phthalate]"
unit_abbreviation = "Å²"
experimental_value = 219.1


[1] COCCOC[C@H](CC1(C(=O)N[C@H]2CC[C@@H](C(=O)O)CC2)CCCC1)C(=O)Oc1ccc2c(c1)CCC2
[2] OC[C@@H](O)[C@@H](O)[C@H](O)[C@@H](O)CO
Q: For 1 and 2 , which recorded collision cross section in nitrogen is lower? State the label of the item chosen.
Ans: 2
(2: 143.4 Å², 1: 222.5 Å²)
